Reference for the values: PubChem BioAssay AID624351

# assay_explanation: coupled detection enzyme interference, dose response, artefact control for MgcRacGAP inhibitor project, biochemical, coupled enzyme counter-screen (AID 624351);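 also: signal is the ADP detection kit reading of free GDP without any GAP enzyme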
# test_conditions: ADP Hunter coupled enzyme counter-screen, fluorescence, no MgcRacGAP; series mostly up to 80 µM
The whole screen tested about 2,400 compounds, of which about 1,400 (58%) were called active. So high a share suggests a set chosen from earlier hits. Some of the results follow.
measure: IC50

>>> data_value("CCOc1cc(/C=C2\\SC(=O)N=C2N)ccc1O")
"14.3 µM (active)"
>>> data_value("COc1cc(/C=N/Nc2nc3ccccc3s2)ccc1O")
"67.7 µM (active)"
>>> data_value("CCN(Cc1ccncc1)Cc1ccc(OC)cc1OC")
"inactive"
>>> data_value("CN(C(=S)NC(=O)C1CC1)c1ccc(O)cc1")
"inactive"
>>> data_value("Cc1cc(Cl)cc2sc(=S)[nH]c12")
"81.5 µM (active)"
>>> data_value("CCCc1c(C)[nH]c2ccc(C(=O)O)cc2c1=S")
"inactive"
>>> data_value("CCCN1C(=O)/C(=C/c2cc(C)n(C)c2C)SC1=Nc1ccc(OCC)cc1")
"inactive"
>>> data_value("CCOC(=O)c1[nH]c2cc(OC)c(OC)cc2c1N")
"31.3 µM (active)"
>>> data_value("Cc1nc(Nc2ccc(O)cc2)c2c3c(sc2n1)CCCC3")
"27.9 µM (active)"
>>> data_value("Cc1nonc1C(=O)N/N=C/c1ccc(O)c(O)c1")
"17.7 µM (active)"
>>> data_value("COc1cc(/C=N/Nc2nc3ccccc3[nH]2)ccc1O")
"17.9 µM (active)"
>>> data_value("COc1cc(/C=N/NC(=O)c2nonc2C)ccc1O")
"25.6 µM (active)"
>>> data_value("CCN(CC)S(=O)(=O)c1ccc(N/N=C/c2ccc(O)cc2O)nc1")
"29.4 µM (active)"
>>> data_value("CCOC(=O)c1[nH]c2ccc(C)cc2c1N")
"27.2 µM (active)"
>>> data_value("COc1ccc(/C=N/Nc2nc3ccccc3[nH]2)cc1OC")
"73.8 µM (active)"
>>> data_value("CCCCN(CC)CCNC(=O)CCC(=O)Nc1ccc2nc(N3CCN(C)CC3)cc(C)c2c1")
"inactive"
>>> data_value("O=C(Oc1ccc(N(C(=O)c2ccncc2)S(=O)(=O)c2cccs2)cc1)c1ccncc1")
"inactive"
>>> data_value("Cc1ccc(C(=O)Oc2csc(=S)n2C(=O)c2ccc(C)cc2)cc1")
"inactive"
>>> data_value("Cc1nonc1C(=O)N/N=C/c1ccc(O)cc1O")
"72 µM (active)"
>>> data_value("O=C(/C=C/c1ccc([N+](=O)[O-])cc1)/C=C/c1ccco1")
"inactive"
>>> data_value("Nc1ccc(C(=O)c2ccc3c(c2)OCCO3)cc1N")
"24.2 µM (active)"
>>> data_value("CCN=C1S/C(=C\\c2ccc(O)c(OCC)c2)C(=O)N1CC")
"39 µM (active)"
>>> data_value("CNC(=S)Nc1ccc(Nc2ccccc2)cc1")
"71.8 µM (active)"
>>> data_value("CC(C)N(c1ccccc1)c1ccc(NC(=S)NCCN(C)C)cc1")
"inactive"
>>> data_value("COc1cc(/C=C2\\SC(N)=NC2=O)ccc1O")
"16.4 µM (active)"

---

# assay_explanation: coupled detection enzyme interference, dose response, artefact control for MgcRacGAP inhibitor project, biochemical, coupled enzyme counter-screen (AID 624351);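 also: signal is the ADP detection kit reading of free GDP without any GAP enzyme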
# test_conditions: ADP Hunter coupled enzyme counter-screen, fluorescence, no MgcRacGAP; series mostly up to 80 µM
In all, about 2,400 compounds went through this assay and about 1,400 (58%) were called active. So high a share suggests a set chosen from earlier hits. The list shows a part of the results.
measure: IC50

>>> data_value("COc1ccc2c(c1)-c1nc(N)sc1CC2")
"42.2 µM (active)"
>>> data_value("Brc1ccccc1OCCCCCN1CCOCC1")
"inactive"
>>> data_value("COc1cc(CC(=O)OCC(=O)Nc2ccc(N(C)C)cc2)cc(OC)c1OC")
"68 µM (active)"
>>> data_value("COc1ccccc1CNCC(=O)Nc1ccccc1-n1cccc1")
"inactive"
>>> data_value("CCOC(=O)c1sc(/N=C/c2ccc(O)cc2O)cc1C")
"24.7 µM (active)"
>>> data_value("COc1ccccc1/C=C(/C(=O)OCC(=O)Nc1ccc(N(C)C)cc1)c1ccccc1")
"66.3 µM (active)"

---

# assay_explanation: coupled detection enzyme interference, dose response, artefact control for MgcRacGAP inhibitor project, biochemical, coupled enzyme counter-screen (AID 624351);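 also: signal is the ADP detection kit reading of free GDP without any GAP enzyme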
# test_conditions: ADP Hunter coupled enzyme counter-screen, fluorescence, no MgcRacGAP; series mostly up to 80 µM
Among all 2,400 compounds or so, about 1,400 (58%) were called active.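 Rule for the calls: active = inhibition of 30% or more at any tested dose; inconclusive = primary hits over the limit that were never retested; inactive = the rest.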 So high a share suggests a set chosen from earlier hits. The list shows a part of the results.
Possible outcomes: True (active), False (inactive)

>>> group_label("Cc1cnc(C(=O)Oc2ccc(-c3ccccc3)cc2)cn1")
"False"
>>> group_label("Cc1cccc(C=Nc2ccc3c4c(cccc24)CC3)c1O")
"True"
>>> group_label("Oc1ccc(Cl)cc1C=Nc1ccc2c3c(cccc13)CC2")
"True"
>>> group_label("O=C(Nc1ccccc1Cl)Oc1ccc(-c2ccccc2)cc1")
"True"
>>> group_label("O=C1/C(=C\\c2ccccc2)CN(C(=O)CCN2CCCCC2)C/C1=C/c1ccccc1")
"False"
>>> group_label("Cc1c(N=C2NC(=O)/C(=C/c3ccc(O)cc3)S2)c(=O)n(-c2ccccc2)n1C")
"True"
>>> group_label("COc1cc(/C=N/NC(=O)CCN2CCN(C(c3ccccc3)c3ccccc3)CC2)ccc1O")
"True"
>>> group_label("C=CCNC(=O)CN1CCN(C(c2ccccc2)c2ccccc2)CC1")
"False"
>>> group_label("O=C(Nc1ccccc1Cl)/C(Cl)=C(\\Cl)S(=O)c1ccccc1 (stereo unspecified)")
"False"
>>> group_label("Oc1ccc(Br)cc1C=Nc1ccc2c3c(cccc13)CC2")
"True"
>>> group_label("COc1ccc(/C=N/NC(=O)CN2CCCCCCC2)c(C)c1C")
"False"

---

# assay_explanation: coupled detection enzyme interference, dose response, artefact control for MgcRacGAP inhibitor project, biochemical, coupled enzyme counter-screen (AID 624351);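 also: signal is the ADP detection kit reading of free GDP without any GAP enzyme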
# test_conditions: ADP Hunter coupled enzyme counter-screen, fluorescence, no MgcRacGAP; series mostly up to 80 µM
The whole screen tested about 2,400 compounds, of which about 1,400 (58%) were called active.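 The calls were made as follows: active = inhibition of 30% or more at any tested dose; inconclusive = primary hits over the limit that were never retested; inactive = the rest.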 The set was probably picked from earlier hits. The list shows a part of the results.
Labels: true (1) (active), false (0) (inactive)

>>> group_label("CCS(=O)(=O)c1nn2c(N)c(/C=C3/C=CC(=O)C(OC)=C3)c(=O)nc2s1")
"true (1)"
>>> group_label("Cc1ccc(NCCN(C)C)c2c(=O)c3cc(O)ccc3sc12")
"true (1)"
>>> group_label("CN(C)CCNc1ccc(CO)c2sc3ccc(O)cc3c(=O)c12")
"true (1)"
>>> group_label("O=C1c2c([N+](=O)[O-])cc([N+](=O)[O-])cc2S(=O)N1Cc1ccccc1 (stereo not drawn)")
"false (0)"
>>> group_label("COc1cc2c(cc1NC(=S)Nc1ccccc1C)oc1ccccc12")
"true (1)"
>>> group_label("COc1cc2c(cc1NCc1ccc3c(c1)OCO3)oc1ccccc12")
"false (0)"
>>> group_label("O=C(O)c1ccccc1C(=O)Nc1ccc(Nc2ccccc2)cc1")
"true (1)"
>>> group_label("Nc1c(Cl)ncnc1N/N=C/c1ccc(O)cc1")
"true (1)"
>>> group_label("Nc1ccc2c(c1)[nH]c(=O)c1cc(N)ccc12")
"true (1)"
>>> group_label("CCn1c(C)nc2cc(C(=O)N/N=C/c3ccc(O)cc3)ccc21")
"true (1)"
>>> group_label("O=C(CCc1ccc(O)c(O)c1)N/N=C/c1ccc2c(c1)OCO2")
"false (0)"
>>> group_label("O=C(Nc1ccc(Nc2ccccc2)cc1)C1CC1")
"true (1)"
>>> group_label("CCc1ccc(/C(C)=N/NC(=O)CNC(=O)/C=C/c2ccco2)cc1")
"false (0)"
>>> group_label("O=C(COc1cccc2cccnc12)N/N=C/c1ccc(O)cc1")
"true (1)"
>>> group_label("COc1cc2c(cc1NC(=S)Nc1cccc3ccccc13)oc1ccccc12")
"true (1)"
>>> group_label("O=C(CCCCCNC(=O)c1ccccc1)N/N=C/c1ccc(O)cc1O")
"true (1)"
>>> group_label("O=C(Nc1ccccc1)C1=C(c2ccccc2)S(=O)(=O)CCS1(=O)=O")
"false (0)"
>>> group_label("Cc1ccc(Nc2ccc(N)cc2S(=O)(=O)O)cc1")
"true (1)"
>>> group_label("CS(=O)(=O)C1=NSC2=NC(=O)/C(=C\\c3ccc(OC(=O)c4ccco4)c(Br)c3)C(=N)N21")
"false (0)"
>>> group_label("CCOc1cccc2cc(C(=O)Oc3ccc(OC)cc3)c(=O)oc12")
"false (0)"
>>> group_label("COc1ccc(/C=N/Nc2cc(C)nc3c(C)cccc23)cc1")
"false (0)"
>>> group_label("CCN(CC)CCCNc1ccc2ncn3c4ccc(O)cc4c(=O)c1c23")
"false (0)"
>>> group_label("c1nc(SSc2ncnc3nc[nH]c23)c2[nH]cnc2n1")
"false (0)"
